Hi there, I'd appreciate the recorded activation for every entry that follows.
Tested on: Nuclear hormone receptor DAF-12 (Heterodera glycines), GAL4 fusion
Test: H. glycines DAF-12 receptor agonists, primary screen, cell-based, luminescence, HEK293, GAL4 fusion, UAS-luciferase (AID 687014);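 also: 0% = DMSO wells and 100% = sodium butyrate wells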
Settings: HEK293 GAL4-hgDAF12 UAS-luciferase reporter, agonist luminescence; at 6.8 µM; hits give high values; normalized to butyrate control
About 6,800 (1.8%) of roughly 370,000 compounds were called active. This is one part of a sample in which actives are shown more often than they occur.
One number for each entry, in %.

Please review the entries below; each comes with its answer.
molecule | assayedSystem | valueUnits | reportedValue
CC(C)(C)n1nc2c(c1NC(=O)c1ccc(S(=O)(=O)N3CCCC3)cc1)CS(=O)C2 (configuration not stated) | Nuclear hormone receptor DAF-12 (Heterodera glycines), GAL4 fusion | % | -0.9
CN1OC[C@@H]2CN(C(=O)c3ccc(-c4ccccc4)cc3)[C@H](c3ccc(-c4cccc(F)c4)cc3)C[C@@H]21 | Nuclear hormone receptor DAF-12 (Heterodera glycines), GAL4 fusion | % | 2.92
Cc1ccc(NC(=O)c2cc(C)nn2-c2ccccc2)c(C)c1 | Nuclear hormone receptor DAF-12 (Heterodera glycines), GAL4 fusion | % | -1.76

// each molecule listed below needs its activation
1. Cc1cccc(CN2CCN(C3CN(Cc4cn(Cc5cc(C)cc(C)c5)nn4)S(=O)(=O)C3)CC2)c1 (configuration not stated)
2. COc1ccc(CN2C[C@H]3CON(C)[C@H]3C[C@H]2c2ccc(-c3cccc(F)c3)cc2)cc1
3. CN1C(=O)c2cc(NS(C)(=O)=O)ccc2OC[C@@H]2O[C@@H](CC(=O)NCc3ccc(-c4ccccc4)cc3)CC[C@H]21
4. O=C(Nc1ncccc1O)c1ccc(S(=O)(=O)N2CCCC2)cc1
5. O=C(NCCCN1CCOCC1)c1ccccc1NS(=O)(=O)c1ccc(F)cc1

[-3.8, -1.7, -3.14, 26.2, -1.36]

// each molecule listed below needs its activation
1. O=C(N[C@H](Cc1ccccc1)C(=O)N1CCCN(Cc2cccs2)CC1)[C@H]1O[C@@H](n2ccc(=O)[nH]c2=O)[C@H](O)[C@@H]1O
2. COc1ccc(C2=CN(Cc3ccccc3)C(c3ccc(OC)cc3)CC2=O)cc1 (configuration not stated)
3. CCOC(=O)c1cccnc1NC(=O)c1ccncc1

-0.37
1.21
2.56

The recorded activation with Nuclear hormone receptor DAF-12 (Heterodera glycines), GAL4 fusion for CC(=O)C1=C(C)N(Cc2ccc(Cl)cc2)C(=S)NC1c1ccc(F)cc1 (configuration not stated) was 3.22

Provenance of the data: PubChem BioAssay AID687014
